Hi there, I'd appreciate the recorded self-cleavage for every entry that follows.
B1: HDV Ribozyme (parent)
chain: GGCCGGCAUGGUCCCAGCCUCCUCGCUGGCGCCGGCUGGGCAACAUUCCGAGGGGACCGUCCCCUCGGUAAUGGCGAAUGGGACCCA

Variants of: B1
protocol-summary: self-cleavage, relative activity (ratio to wild type); higher = more cleavage; co-transcriptional
Answers are plain numbers.

Record excerpt, results attached:
• A56U C66G = 0.997
• C3A A71U = 0.385
• G34A C66U = 0.0665
• A56U A83U = 0.318
• C18G G53A = 0.175

Parameters: items (list). Returns: self-cleavage for each item.
1. A16G C58U
2. A42U A77G
3. C33G C48G
4. C36G A83C
5. G25C A87C
6. G40U A70C
7. G34C G35C
8. G50C U72C

0.962
0.464
0.227
0.0831
0.07
0.391
0.246
0.494

For every item below, please supply its self-cleavage.
1. C62A G82C
2. G38A U60A
3. G59A A71G
4. U60C U79A

0.271
0.117
0.984
1.23

Provide self-cleavage values for the following items, in order.
1. U69G A70G
2. U23A G54C
3. C32A C85U
4. G76C A83U

1. 0.767
2. 1.15
3. 0.231
4. 0.464
